# Tested on: NCI-H1651
# ASSAY: relative viability (nuclei count vs DMSO), 5 days (fraction); higher = more cells survive
# COND: first compound 8 µM
Just a reminder that ties go to 0.0: only relative viability strictly below 0.6 counts as 1.0.

Prompt: Here's an entry: Nc1cccc2c1CN(C1CCC(=O)NC1=O)C2=O (stereo unspecified) [Lenalidomide] + O=C(CCCCCCC(=O)Nc1ccccc1)NO [Vorinostat] (partner 1 µM) . Is its relative viability below 0.6?
Response: 1.0

Prompt: Could you please tell me whether relative viability recorded for Nc1cccc2c1CN(C1CCC(=O)NC1=O)C2=O (stereo unspecified) [Lenalidomide] + COc1cccc2cc(-c3nc([C@H]4CC[C@H](C(=O)O)CC4)n4ncnc(N)c34)[nH]c12 [OSI-027] (partner 0.5 µM) is less than 0.6?
Response: 0.0

Prompt: Regarding Nc1cccc2c1CN(C1CCC(=O)NC1=O)C2=O (stereo unspecified) [Lenalidomide] + CCNC(=O)c1noc(-c2cc(C(C)C)c(O)cc2O)c1-c1ccc(CN2CCOCC2)cc1 [Luminespib] (partner 0.01 µM) , kindly confirm whether its relative viability is beneath 0.6.
Response: 0.0

Prompt: In the record for Nc1cccc2c1CN(C1CCC(=O)NC1=O)C2=O (stereo unspecified) [Lenalidomide] + CC(C)C[C@H](NC(=O)[C@H](Cc1ccccc1)NC(=O)c1cnccn1)B(O)O [Bortezomib] (partner 0.002 µM) , is relative viability less than 0.6?
Response: 0.0

Prompt: Could you please tell me whether relative viability recorded for Nc1cccc2c1CN(C1CCC(=O)NC1=O)C2=O (stereo unspecified) [Lenalidomide] + Cc1nc(Nc2ncc(C(=O)Nc3c(C)cccc3Cl)s2)cc(N2CCN(CCO)CC2)n1 [Dasatinib] (partner 0.075 µM) is less than 0.6?
Response: 1.0

Prompt: Does this compound meet the criterion relative viability < 0.6? Nc1cccc2c1CN(C1CCC(=O)NC1=O)C2=O (stereo unspecified) [Lenalidomide] + Nc1ncn([C@H]2C[C@H](O)[C@@H](CO)O2)c(=O)n1 [Decitabine] (partner 2 µM)
Response: 1.0

====

For each of the compounds below, state its relative viability.
# System: LCLC-97TM1
# ASSAY: relative viability (nuclei count vs DMSO), 5 days (fraction); higher = more cells survive
# COND: first compound 0.006325 µM
Please reply with the number alone, leaving off any unit.

Prompt: Record request: relative viability value, item CCNC(=O)c1noc(-c2cc(C(C)C)c(O)cc2O)c1-c1ccc(CN2CCOCC2)cc1 [Luminespib] + CC1(C)CCC(c2ccc(Cl)cc2)=C(CN2CCN(c3ccc(C(=O)NS(=O)(=O)c4ccc(N[C@H](CCN5CCOCC5)CSc5ccccc5)c(S(=O)(=O)C(F)(F)F)c4)cc3)CC2)C1 [Navitoclax] (partner 0.5 µM)
Response: 0.538

Prompt: Which relative viability is reported for this compound? CCNC(=O)c1noc(-c2cc(C(C)C)c(O)cc2O)c1-c1ccc(CN2CCOCC2)cc1 [Luminespib] + COc1cccc2cc(-c3nc([C@H]4CC[C@H](C(=O)O)CC4)n4ncnc(N)c34)[nH]c12 [OSI-027] (partner 0.5 µM)
Response: 0.601

Prompt: Request the reported relative viability associated with CCNC(=O)c1noc(-c2cc(C(C)C)c(O)cc2O)c1-c1ccc(CN2CCOCC2)cc1 [Luminespib] + C[C@@H](Oc1cc(-c2cnn(C3CCNCC3)c2)cnc1N)c1c(Cl)ccc(F)c1Cl [Crizotinib] (partner 1 µM)
Response: 0.461

Prompt: // returns reported relative viability for input CCNC(=O)c1noc(-c2cc(C(C)C)c(O)cc2O)c1-c1ccc(CN2CCOCC2)cc1 [Luminespib] + O=C(c1cc(Cc2n[nH]c(=O)c3ccccc23)ccc1F)N1CCN(C(=O)C2CC2)CC1 [Olaparib] (partner 8 µM)
Response: 0.5

Prompt: Given the compound CCNC(=O)c1noc(-c2cc(C(C)C)c(O)cc2O)c1-c1ccc(CN2CCOCC2)cc1 [Luminespib] + C[C@]1(O)C[C@@H](c2nc(-c3ccc4ccc(-c5ccccc5)nc4c3)c3c(N)nccn32)C1 [Linsitinib] (partner 1 µM) , what is its reported relative viability?
Response: 0.199

Prompt: Given the compound CCNC(=O)c1noc(-c2cc(C(C)C)c(O)cc2O)c1-c1ccc(CN2CCOCC2)cc1 [Luminespib] + Nc1nc2[nH]cc(CCc3ccc(C(=O)N[C@@H](CCC(=O)O)C(=O)O)cc3)c2c(=O)[nH]1 [Pemetrexed] (partner 0.2 µM) , what is its reported relative viability?
Response: 0.164

====

# Tested on: A549
# ASSAY: relative viability (nuclei count vs DMSO), 5 days (fraction); higher = more cells survive
# COND: first compound 0.006325 µM
EXPERIMENTAL ENDPOINT: relative viability
Number only, no unit.

Prompt: Tell me the measured relative viability of CCNC(=O)c1noc(-c2cc(C(C)C)c(O)cc2O)c1-c1ccc(CN2CCOCC2)cc1 [Luminespib] + C[C@]1(O)C[C@@H](c2nc(-c3ccc4ccc(-c5ccccc5)nc4c3)c3c(N)nccn32)C1 [Linsitinib] (partner 1 µM) , please.
Response: 0.583

Prompt: Recorded relative viability for CCNC(=O)c1noc(-c2cc(C(C)C)c(O)cc2O)c1-c1ccc(CN2CCOCC2)cc1 [Luminespib] + O=C(c1cc(Cc2n[nH]c(=O)c3ccccc23)ccc1F)N1CCN(C(=O)C2CC2)CC1 [Olaparib] (partner 8 µM) , please?
Response: 0.174

Prompt: Dear colleague, I am looking for the recorded relative viability of the following compound: CCNC(=O)c1noc(-c2cc(C(C)C)c(O)cc2O)c1-c1ccc(CN2CCOCC2)cc1 [Luminespib] + N=C(N)NC(=N)NCCc1ccccc1 [Phenformin] (partner 250 µM)
Response: 0.132

Prompt: Fill blank: measured relative viability of the compound CCNC(=O)c1noc(-c2cc(C(C)C)c(O)cc2O)c1-c1ccc(CN2CCOCC2)cc1 [Luminespib] + COc1cc2c(Oc3ccc(NC(=O)C4(C(=O)Nc5ccc(F)cc5)CC4)cc3F)ccnc2cc1OCCCN1CCOCC1 [Foretinib] (partner 0.25 µM) is ____.
Response: 0.842

Prompt: Which value of relative viability has been reported for CCNC(=O)c1noc(-c2cc(C(C)C)c(O)cc2O)c1-c1ccc(CN2CCOCC2)cc1 [Luminespib] + CS(=O)(=O)N1CCN(Cc2cc3nc(-c4cccc5[nH]ncc45)nc(N4CCOCC4)c3s2)CC1 [Pictilisib] (partner 1 µM) in the records?
Response: 0.517

====

# System: NCI-H1355
# ASSAY: relative viability (nuclei count vs DMSO), 5 days (fraction); higher = more cells survive
# COND: first compound 0.6325 µM
Exercise: state measured relative viability for each of the compounds provided.
When you answer, write just the number.

Prompt: Given the entry Cc1csc(=NC2CCCCC2)n1/N=C/c1ccc(O)c(O)c1O [MIM1] + COc1cccc2cc(-c3nc([C@H]4CC[C@H](C(=O)O)CC4)n4ncnc(N)c34)[nH]c12 [OSI-027] (partner 0.5 µM) , what relative viability was observed with NCI-H1355?
Response: 0.366

Prompt: API: value(readout=relative viability, system=NCI-H1355) for record Cc1csc(=NC2CCCCC2)n1/N=C/c1ccc(O)c(O)c1O [MIM1] + Cc1cc(Nc2cc(N3CCN(C)CC3)nc(Sc3ccc(NC(=O)C4CC4)cc3)n2)n[nH]1 [Tozasertib] (partner 0.1 µM)
Response: 0.557

Prompt: NCI-H1355 / relative viability / Cc1csc(=NC2CCCCC2)n1/N=C/c1ccc(O)c(O)c1O [MIM1] + CC(=O)Nc1cccc(-n2c(=O)n(C3CC3)c(=O)c3c(Nc4ccc(I)cc4F)n(C)c(=O)c(C)c32)c1 [Trametinib] (partner 0.02 µM) : value?
Response: 0.436

Prompt: Entry CN1CCN(CCOc2cc(OC3CCOCC3)c3c(Nc4c(Cl)ccc5c4OCO5)ncnc3c2)CC1 [Saracatinib] + CS(=O)(=O)N1CCN(Cc2cc3nc(-c4cccc5[nH]ncc45)nc(N4CCOCC4)c3s2)CC1 [Pictilisib] (partner 1 µM) , system NCI-H1355: what relative viability was measured?
Response: 0.516

====

# Tested on: NCI-H650
# ASSAY: relative viability (nuclei count vs DMSO), 5 days (fraction); higher = more cells survive
# COND: first compound 0.2 µM
EXPERIMENTAL ENDPOINT: relative viability
Reply: number alone, nothing else.

Prompt: Form field: relative viability recorded for Cc1csc(=NC2CCCCC2)n1/N=C/c1ccc(O)c(O)c1O [MIM1] + Cc1nc(NC(=O)N2CCC[C@H]2C(N)=O)sc1-c1ccnc(C(C)(C)C(F)(F)F)c1 [Alpelisib] (partner 2 µM) with NCI-H650 (enter value)
Response: 1.19

Prompt: Form field: relative viability recorded for Cc1csc(=NC2CCCCC2)n1/N=C/c1ccc(O)c(O)c1O [MIM1] + CC(=O)Nc1cccc(-n2c(=O)n(C3CC3)c(=O)c3c(Nc4ccc(I)cc4F)n(C)c(=O)c(C)c32)c1 [Trametinib] (partner 0.02 µM) with NCI-H650 (enter value)
Response: 1.02

Prompt: For NCI-H650, provide relative viability of Cc1csc(=NC2CCCCC2)n1/N=C/c1ccc(O)c(O)c1O [MIM1] + O=C(CCCCCCC(=O)Nc1ccccc1)NO [Vorinostat] (partner 1 µM) please.
Response: 0.481

Prompt: Request - read-out relative viability | tested on NCI-H650 | compound Cc1csc(=NC2CCCCC2)n1/N=C/c1ccc(O)c(O)c1O [MIM1] + NC(=O)Nc1cc(-c2cccc(F)c2)sc1C(=O)N[C@H]1CCCNC1 [AZD7762] (partner 0.2 µM)
Response: 1.05

Prompt: # get_value(readout= relative viability, system= NCI-H650) for CCNC(=O)c1noc(-c2cc(C(C)C)c(O)cc2O)c1-c1ccc(CN2CCOCC2)cc1 [Luminespib] + COc1cccc2cc(-c3nc([C@H]4CC[C@H](C(=O)O)CC4)n4ncnc(N)c34)[nH]c12 [OSI-027] (partner 0.5 µM)
Response: 0.109

Prompt: Form: Entry = CCNC(=O)c1noc(-c2cc(C(C)C)c(O)cc2O)c1-c1ccc(CN2CCOCC2)cc1 [Luminespib] + CC(=O)c1c(C)c2cnc(Nc3ccc(N4CCNCC4)cn3)nc2n(C2CCCC2)c1=O [Palbociclib] (partner 0.5 µM) | System = NCI-H650 | relative viability = ____
Response: 0.0632

Prompt: Missing value: relative viability, NCI-H650, entry CCNC(=O)c1noc(-c2cc(C(C)C)c(O)cc2O)c1-c1ccc(CN2CCOCC2)cc1 [Luminespib] + Cc1nc(NC(=O)N2CCC[C@H]2C(N)=O)sc1-c1ccnc(C(C)(C)C(F)(F)F)c1 [Alpelisib] (partner 2 µM) . Fill in?
Response: 0.145

Prompt: Hi! What's the reported relative viability for Cc1csc(=NC2CCCCC2)n1/N=C/c1ccc(O)c(O)c1O [MIM1] + C[C@]1(O)C[C@@H](c2nc(-c3ccc4ccc(-c5ccccc5)nc4c3)c3c(N)nccn32)C1 [Linsitinib] (partner 1 µM) on NCI-H650?
Response: 0.964

Prompt: Please state recorded relative viability (tested on NCI-H650) of CCNC(=O)c1noc(-c2cc(C(C)C)c(O)cc2O)c1-c1ccc(CN2CCOCC2)cc1 [Luminespib] + C[C@]1(O)C[C@@H](c2nc(-c3ccc4ccc(-c5ccccc5)nc4c3)c3c(N)nccn32)C1 [Linsitinib] (partner 1 µM)
Response: 0.117

Prompt: Which measured relative viability belongs to CCNC(=O)c1noc(-c2cc(C(C)C)c(O)cc2O)c1-c1ccc(CN2CCOCC2)cc1 [Luminespib] + CC(C)C[C@H](NC(=O)[C@H](Cc1ccccc1)NC(=O)c1cnccn1)B(O)O [Bortezomib] (partner 0.002 µM) , tested on NCI-H650?
Response: 0.103
